Tested on: MDA-N
experimental_protocol: NCI tumour cell line growth inhibition, 48 h
measured_attribute: TGI

Below, 5 compounds whose answers are already recorded.
Cc1ccc2c(c1)C(=O)C1(C2)Cc2cccc(C)c2C1=O (stereo unspecified); > 100 µM
Cn1c(COC(=O)Nc2ccccc2)c(COC(=O)Nc2ccccc2)c2ccc3cc(Cl)c(Cl)cc3c21; 18.3 µM
CC1=NNC(=O)C1C(CC(=O)c1c[nH]c2ccccc12)C(=O)O (stereo unspecified); > 100 µM
Nc1ccn(C2CCC(CO)O2)c(=O)n1 (stereo unspecified); > 1000 µM
O=[N+]([O-])/C(C(Cl)=C(Cl)Cl)=C(\N1CCCCC1)n1cncn1; 32.8 µM

query: So what does the record say about TGI for CCCCN=C(c1ccccc1)N1CCOCC1 ?
result: > 100 µM

query: Could you do the same for CCC/C(Cl)=N\OC(=O)Nc1ccc(OC(F)(F)F)cc1 , please?
result: 28.2 µM

query: Another compound to check: Cc1nc2sc3ccccc3n2c(=O)c1N=Nc1ccc(Cl)cc1
result: > 100 µM

query: Next: [N-]=[N+]=NC1=C(c2ccccn2)C(=O)c2cccc3cccc1c23
result: > 100 µM

query: And the next one, CCOC(=O)NC(Nc1ccc([N+](=O)[O-])cc1)(C(F)(F)F)C(F)(F)F ?
result: 54.7 µM

query: Continue with CCN1CCC(O)(/C=C/c2ccc(C)cc2C)C(C(=O)/C=C/c2ccc(C)cc2C)C1 (stereo unspecified)
result: 6.26 µM

These data points were gathered from PubChem BioAssay (NCI).
